Reference source: ChEMBL document CHEMBL1817644

# SYSTEM_UNDER_TEST: Nucleic Acid
# ASSAY_DETAILS: Binding affinity to 2-amino purine labelled SAM2 riboswitch aptamer assessed as change in fluorescence at 5 mM to 10 mM at pH 8.3 by fluorescence binding assay
Measured pKd of individual entries
The read-out pKd is expressed as -log10 of concentration in moles per litre.

{"MOLECULE": "C[S+](CC[C@H](N)C(=O)[O-])C[C@H]1O[C@@H](n2cnc3c(N)ncnc32)[C@H](O)[C@@H]1O (some centres not stated) [ADEMETIONINE]", "SYSTEM_UNDER_TEST": "Nucleic Acid", "RECORDED_RESULT": 5.22}

Here is the next item to consider.
The molecule C[S+](CC[C@H](N)C(=O)NCCN)C[C@H]1O[C@@H](n2cnc3c(N)ncnc32)[C@H](O)[C@@H]1O (some centres not stated) showed pKd equal to 5.51
